# TARGET_UNDER_TEST: Albumin (Bos taurus) (UniProt P02769)
# Sequence (P02769 whole entry, looked up): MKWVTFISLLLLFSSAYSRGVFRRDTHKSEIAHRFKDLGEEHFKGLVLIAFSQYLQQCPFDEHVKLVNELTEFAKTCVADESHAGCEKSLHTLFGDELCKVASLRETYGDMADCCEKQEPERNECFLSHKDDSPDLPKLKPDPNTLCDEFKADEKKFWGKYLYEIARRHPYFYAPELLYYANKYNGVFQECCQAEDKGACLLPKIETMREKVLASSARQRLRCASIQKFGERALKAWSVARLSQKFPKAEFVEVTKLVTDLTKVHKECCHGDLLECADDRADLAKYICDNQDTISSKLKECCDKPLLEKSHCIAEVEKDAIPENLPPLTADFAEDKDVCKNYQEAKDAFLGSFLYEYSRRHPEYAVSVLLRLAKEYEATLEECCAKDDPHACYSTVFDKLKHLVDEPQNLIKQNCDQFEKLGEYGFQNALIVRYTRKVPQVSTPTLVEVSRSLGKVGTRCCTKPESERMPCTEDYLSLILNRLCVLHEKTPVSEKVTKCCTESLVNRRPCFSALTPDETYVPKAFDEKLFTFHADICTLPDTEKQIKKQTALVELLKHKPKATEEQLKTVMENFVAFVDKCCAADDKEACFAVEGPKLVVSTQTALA
# ASSAY_INFO: compounds binding labelled BSA control protein – biochemical, small-molecule microarray, Alexa647 label, 635/667 nm fluorescence, artefact control for SMM control protein annotation, profiling panel (AID 1118);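 further: score merges 667 nm emission intensity and signal-to-noise per printed compound spot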
# CONDITION_NOTES: BSA-A647 binding, fluorescence 635 nm, higher = more signal
MEASURED_PARAMETER: composite z-score
Enter the number alone.

Q. Record request: composite z-score value, item C=C(CCCC)/C(=C/C[C@H](OC(C)=O)c1ccc(CO)o1)c1cc(C(=O)OC)ccc1OC
A. 0.588

Q. Queued: C=CCN1Cc2ccccc2C[C@]2(N=C(c3ccc(OCCCO)cc3)O[C@@H]2c2ccccc2)C1=O
A. 0.025

Q. Queued: O=C(CS)NCCCCCNC(=O)[C@H]1C[C@H]2C(=O)N[C@@H](Cc3ccccc3)C(=O)N2[C@H]1c1cccc(OCCO)c1
A. -1.62

Q. Queued: COc1ccc([Si](C)(C)[C@H]2[C@H](CC(=O)N3Cc4ccccc4C[C@H]3CO)O[C@@]3(C(=O)N(Cc4cccc(I)c4)c4ccccc43)[C@@H]2C)cc1
A. -0.481

Q. Queued: CC(C)[C@H]1COC(=O)N1C(=O)[C@H]1[C@@H](c2ccccc2)N(c2ccccc2)O[C@@H]1C
A. 0.15

Q. Queued: C=C(C(=O)CC[C@@H](OC(=O)c1cccnc1)c1ccc(OCCO)cc1)C(C)C
A. -0.541

Q. Queued: COC(=O)c1c(CC[C@@H](CO)NC(=O)Nc2ncn[nH]2)oc(C(=O)Cc2ccccc2)c1C(=O)OC
A. -0.145

Q. Queued: COc1ccc(C#Cc2ccc3c(c2)[C@]2(C(=O)N3)[C@H](C(=O)N3CCc4cc(OC)c(OC)cc4C3)[C@H]3C(=O)O[C@H](c4ccccc4)[C@H](c4ccccc4)N3[C@@H]2c2ccc(OCCO)cc2)cc1
A. -0.0155

Q. Queued: O=C1C2C=CC(C(O)c3ccccn3)N(Nc3ccccc3F)C2C(=O)N1c1ccccc1 (configuration not stated)
A. 0.127

Q. Queued: COc1ccc(C(=O)Nc2cccc(CN3C(=O)[C@@]4(O[C@@H](CCn5cc([C@H](O)c6ccccc6)nn5)[C@H]([Si](C)(C)c5ccc(OC)cc5)[C@H]4C)c4ccccc43)c2)cc1
A. -0.455

Q. Queued: COCCCNC(=O)[C@@]1(C)c2ccccc2C(=O)N(Cc2ccccc2)[C@H]1c1ccc(CO)cc1
A. 0.172

Q. Queued: CC(=O)n1cc(C(O)C2C=CC3C(=O)N(c4ccccc4)C(=O)C3N2Nc2ccc(C#N)cc2)c2ccccc21 (configuration not stated)
A. 0.938
